- TESTED ON: T1, hu-CD74 antigen (R&D SYSTEMS catalog #3590-CD-050) (human, UniProt P04233-2 73-232, limits assumed)
- T1 construct: Bought antigen; also called rhCD74; human CD74
- T1 sequence (looked up): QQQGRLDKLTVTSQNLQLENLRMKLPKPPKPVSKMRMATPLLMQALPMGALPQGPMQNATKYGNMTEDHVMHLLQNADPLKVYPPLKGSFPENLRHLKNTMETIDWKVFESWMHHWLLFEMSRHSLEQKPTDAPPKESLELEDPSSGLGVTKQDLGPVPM
- PROTOCOL TEXT: SPR (Biacore T200), captured on anti-human Fc, rhCD74 analyte
READOUT: koff (s⁻¹)
Entry rule: numbers only, all in s⁻¹.

Here are 3 binders together with their reported answers.
[
  {
    "BINDER": "1193-E06b (scFv, Called scFv clone) scFv: EVQLLESGGGLVQPGGSLRLSCAASGFTFNNTDMSWVRQAPGKGLEWVGIINGSGGATNYADSVKGRFTISRDNSKNTLYLQMNSLRAEDTAVYYCAKFENEWEVSMDYWGQGTLVTVSSGGGGSGGGGSGGGGSEIVLTQSPGTLSLSPGERATLSCRASQSVSSSYLAWYQQKPGQAPRLLIYGASSRATGIPDRFSGSGSGTDFTLTISRLEPEDFAVYYCQQHYTTPPTFGQGTKVEIK",
    "koff [s⁻¹]": 0.000651
  },
  {
    "BINDER": "1193-C08 (scFv, Called scFv clone) scFv: EVQLLESGGGLVQPGGSLRLSCAASGFTFNNNWMSWVRQAPGKGLEWVGIINGDDGYTYYADRVKGRFTIIRDNSKNTLYLQMNSLRAEDTAVYYCAKVALGRPRRFDYWGQGTLVTVSSGGGGSGGGGSGGGGSEIVLTQSPGTLSLTPGERATLSCRASQSVSSNYLAWYQQKPGQAPRLLIYGASSRATGIPDRFSGSGSGTDFTLTISRLEPEDFAMYYCQQHYTTPPTFGQGTKVEIK",
    "koff [s⁻¹]": 0.00908
  },
  {
    "BINDER": "1193-H04b (scFv, Called scFv clone) scFv: EVQLLESGGGLVQPGGSLRLSCAASGFTFTSSWMSWVRQAPGKGLEWVGIINGYNGITYYADSVKGRFTISRDNSKNTLYLQMNSLRAEDTAVYYCAKPSAPGARRFDYWGQGTLVTVSSGGGGSGGGGSGGGGSEIVLTQSPGTLSLSPGEATLSCRASQSVSSSYLAWYQQRPGQAPRLLIYGASSRATGIPDRFSGSGSGTDFTLTISRLEPEDFAVYYCQQHYTTPPTFGQGTKVEIK",
    "koff [s⁻¹]": 0.00824
  }
]

Now look at this entry.
(Q) Sample 1193-B06 (scFv, Called scFv clone; VH3-23 / Vk3-A27; Biacore capture was on anti-human Fc, so an Fc may have been attached) scFv: EVQLLESGGGLVQPGGSLRLSCAASGFTFTGNWMSWVRQAPGKGLEWVGIIYGTSGATYYADSVKGRFTISRDNSKNTLYLQMNSLRAEDTAVYYCAKPSMSGSRGFDYWGQGTLVTVSSGGGGSGGGGSGGGGSEIVLTQSPGTLSLSPGERATLSCRAGQSVSSSYLAWYQQKPGQAPRLLIYGASSRATGIPDRFSGSGSGTDFTLTISRLEPEDFAVYYCQQHYTTPPTFGQGTKVEIK — what was its koff?
(A) 0.0274
